Target: hMetAP2 (Homo sapiens, UniProt P50579)
Sequence (P50579 whole entry): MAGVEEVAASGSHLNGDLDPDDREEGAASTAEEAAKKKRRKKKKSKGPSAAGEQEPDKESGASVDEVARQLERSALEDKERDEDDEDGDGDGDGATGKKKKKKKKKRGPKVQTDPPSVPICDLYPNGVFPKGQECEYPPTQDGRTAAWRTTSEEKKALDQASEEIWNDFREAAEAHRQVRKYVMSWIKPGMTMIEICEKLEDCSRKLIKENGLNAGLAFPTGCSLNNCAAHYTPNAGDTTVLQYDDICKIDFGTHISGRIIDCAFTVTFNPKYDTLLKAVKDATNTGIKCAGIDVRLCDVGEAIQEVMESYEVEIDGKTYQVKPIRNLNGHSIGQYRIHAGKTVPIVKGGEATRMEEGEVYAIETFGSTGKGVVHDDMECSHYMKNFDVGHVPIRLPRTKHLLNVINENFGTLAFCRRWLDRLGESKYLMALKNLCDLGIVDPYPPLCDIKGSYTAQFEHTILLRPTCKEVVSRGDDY
Assay: human MetAP2 enzyme assay
Type: biochemical
Conditions: read-out: IC50 hMetAP2; enzyme assay, 10 μM Mn2+
quantityMeasured: IC50

Nc1cc(Cl)c2cccnc2c1O	> 15 µM
Cc1ccc2c([N+](=O)[O-])cc([N+](=O)[O-])c(O)c2n1	> 15 µM
Oc1c(Br)cc(Cl)c2cccnc12	> 15 µM
O=[N+]([O-])c1cc(Cl)c2cccnc2c1O	> 15 µM
O=S(=O)(O)c1ccc(O)c2ncccc12	> 15 µM
Oc1c(CN2CCOCC2)ccc2cccnc12	> 15 µM
OCCOc1ccc(Cl)c2cccnc12	> 15 µM
Oc1c(Br)cc(Br)c2cccnc12	> 15 µM
Cc1ccc2cccc(O)c2n1	> 15 µM
CC(=O)Nc1ccc(O)c2ncccc12	> 40 µM
O=C(Nc1ccc(O)c2ncccc12)c1ccccc1	> 40 µM
CN(C)S(=O)(=O)Oc1ccc([N+](=O)[O-])c2cccnc12 [Entry 48, 5-nitroquinolin-8-yl dimethylsulfamate]	0.057 µM
N#Cc1ccc2cccc(O)c2n1	> 15 µM
Oc1c(I)cc(I)c2cccnc12	> 15 µM
Oc1c(Cl)cc(Cl)c2cccnc12	> 15 µM

###

Tested on: MetAP
Assay: Immunoblot of Met-14-3-3γ
Type: cell-based, human
Details: compound treated HUVEC lysates, 24 h, signal relative to DMSO = 1.0
quantityMeasured: Immunoblot Met-14-3-3γ

Cc1ccc(S(=O)(=O)Nc2ccc([N+](=O)[O-])c3cccnc23)cc1	− (−, >1.5)
Nc1cc(Cl)c2cccnc2c1O	− (−, >1.5)
COc1ccc(N2CCN(Cc3cc(Cl)c4cccnc4c3O)CC2)cc1	− (−, >1.5)
O=[N+]([O-])c1ccc(O)c2ncccc12 [Entry 5, Nitroxoline, reference compound]	+ (+, ≥1.5)
O=C(Nc1ccc(O)c2ncccc12)c1ccccc1	+ (+, ≥1.5)
Cc1ccc(S(=O)(=O)Nc2ccc(N=O)c3cccnc23)cc1	+ (+, ≥1.5)
O=Nc1ccc(O)c2ncccc12	− (−, >1.5)
Cc1ccc(S(=O)(=O)Nc2cccc3cccnc23)cc1 [Entry 32, 8-quinolinyl p-toluenesulfonamide]	− (−, >1.5)
CC(C)(C)C(=O)Oc1ccc([N+](=O)[O-])c2cccnc12 [Entry 46, 5-nitroquinolin-8-yl pivalate]	+ (+, ≥1.5)
Nc1ccc(O)c2ncccc12	− (−, >1.5)
CN(C)S(=O)(=O)Oc1ccc([N+](=O)[O-])c2cccnc12 [Entry 48, 5-nitroquinolin-8-yl dimethylsulfamate]	+ (+, ≥1.5)

###

Tested on: HFF
Test: HFF cell-viability assay using calcein-AM
Type: cell-based, human
Conditions: Homo sapiens, HFF, read-out: IC50 Calcein-AM HFF
pIC50: −log10 of the molar value.
quantityMeasured: pIC50

Nc1ccc(O)c2ncccc12	4.43
CN(C)S(=O)(=O)Oc1ccc([N+](=O)[O-])c2cccnc12 [Entry 48, 5-nitroquinolin-8-yl dimethylsulfamate]	5.65
O=C(Nc1cc(Cl)cc(Cl)c1)Oc1ccc(Cl)c2cccnc12	5.57
Cc1ccc(S(=O)(=O)Nc2ccc([N+](=O)[O-])c3cccnc23)cc1	6.11
Cc1ccc(S(=O)(=O)Nc2cccc3cccnc23)cc1 [Entry 32, 8-quinolinyl p-toluenesulfonamide]	6.04
Oc1c(C(c2ccccc2)N2CCOCC2)cc(Cl)c2cccnc12 (stereo not drawn)	5.44
O=Nc1ccc(O)c2ncccc12	5.04
Cc1ccc(S(=O)(=O)Nc2ccc(N=O)c3cccnc23)cc1	6.11
O=[N+]([O-])c1ccc(O)c2ncccc12 [Entry 5, Nitroxoline, reference compound]	5.43

###

Molecular target: hMetAP1 (Homo sapiens, UniProt P53582)
Assay: human MetAP1 enzyme assay
Assay type: biochemical
Conditions: IC50 hMetAP1, enzyme assay, 10 μM Co2+
The entries below come with measured IC50 values attached.
quantityMeasured: IC50

O=C(Nc1ccccc1)Oc1ccc(Cl)c2cccnc12 [Entry 22, 5-chloroquinolin-8-yl phenylcarbamate]	> 15 µM
O=C(Nc1cc(F)cc(F)c1)Oc1ccc(Cl)c2cccnc12 [Entry 23]	> 15 µM
O=C(Nc1ccc(F)cc1)Oc1c(Cl)cc(Cl)c2cccnc12 [Entry 25]	> 15 µM
Cc1ccc(S(=O)(=O)Nc2cccc3cccnc23)cc1 [Entry 32, 8-quinolinyl p-toluenesulfonamide]	6.97 µM
NC(=O)COc1ccc([N+](=O)[O-])c2cccnc12 [Entry 50, 2-(5-nitroquinolin-8-yloxy)acetamide]	> 15 µM
CCCCCCN(CCCCCC)c1ccc(O)c2ncccc12 [Entry 36]	> 40 µM
C=CCOc1ccc(Cl)c2cccnc12 [Entry 27, 5-chloro-8-allyloxyquinoline]	> 15 µM
Nc1cccc2cccnc12 [Entry 31, 8-aminoquinoline]	> 15 µM
Oc1c(C(c2ccccc2)N2CCOCC2)cc(Cl)c2cccnc12 (centres unmarked) [Entry 18]	14 µM
O=C(Nc1ccc(O)c2ncccc12)N1CCOCC1 [Entry 42]	> 40 µM
Cc1ccc(S(=O)(=O)Nc2ccc(N=O)c3cccnc23)cc1 [Entry 54]	10.5 µM

###

Molecular target: hMetAP2 (Homo sapiens)
Assay: human MetAP2 enzyme assay
Type: biochemical
quantityMeasured: IC50

O=C(Nc1ccccc1)Oc1ccc(Cl)c2cccnc12 [Entry 22, 5-chloroquinolin-8-yl phenylcarbamate]	5.26 µM
C=CCOc1cccc2ccc(C#N)nc12	> 15 µM
O=Nc1ccc(O)c2ncccc12	> 50 µM
O=C(Nc1cc(Cl)cc(Cl)c1)Oc1ccc(Cl)c2cccnc12	0.024 µM
CCCCCC(=O)Nc1ccc(O)c2ncccc12 [Entry 39, N-(8-Hydroxyquinolin-5-yl)hexanamide]	> 40 µM
O=C(Nc1ccc(F)cc1)Oc1c(Cl)cc(Cl)c2cccnc12	> 15 µM
COc1ccc(CN(Cc2ccc(OC)cc2)c2ccc(O)c3ncccc23)cc1	> 40 µM
CCOP(=O)(OCC)Oc1ccc(Cl)c2cccnc12 [Entry 26, 5-chloroquinolin-8-yl diethyl phosphate]	> 15 µM

###

Biological target: hMetAP1 (Homo sapiens)
Assay: human MetAP1 enzyme assay
Assay type: biochemical
Conditions: IC50 MetAP1 with Co2+, Co2+ metalloform, data not shown
quantityMeasured: IC50

Oc1c(I)cc(Cl)c2cccnc12 [Entry 7, Clioquinol, reference compound]	> 50 µM

###

Molecular target: hMetAP1 (Homo sapiens)
Experiment: human MetAP1 enzyme assay
Format: biochemical
Details: read-out: IC50 hMetAP1; enzyme assay, 10 μM Co2+
pIC50: −log10 of the molar value.
quantityMeasured: pIC50

Oc1c(I)cc(I)c2cccnc12	< 4.82
Oc1c(Cl)cc(Cl)c2cccnc12	< 4.82
Cc1ccc2c([N+](=O)[O-])cc([N+](=O)[O-])c(O)c2n1	4.76
OCCOc1ccc(Cl)c2cccnc12	< 4.82
N#Cc1ccc2cccc(O)c2n1	< 4.82
Nc1cc(Cl)c2cccnc2c1O	< 4.40
Oc1c(CN2CCOCC2)ccc2cccnc12	< 4.30
Cc1ccc2cccc(O)c2n1	< 4.82
O=[N+]([O-])c1cc(Cl)c2cccnc2c1O	< 4.82
Oc1c(Br)cc(Cl)c2cccnc12	< 4.82
O=C(Nc1ccc(O)c2ncccc12)c1ccccc1	5.19
CC(=O)Nc1ccc(O)c2ncccc12	< 4.40
Oc1c(Br)cc(Br)c2cccnc12	< 4.82
CN(C)S(=O)(=O)Oc1ccc([N+](=O)[O-])c2cccnc12 [Entry 48, 5-nitroquinolin-8-yl dimethylsulfamate]	< 4.82

###

The entries below come with measured b = bottom value of the curve, Calcein-AM HFF values attached.
Tested on: HFF
Assay: HFF cell-viability assay using calcein-AM
Format: cell-based, human
quantityMeasured: b = bottom value of the curve, Calcein-AM HFF (%)

Oc1c(C(c2ccccc2)N2CCOCC2)cc(Cl)c2cccnc12 (stereo not drawn) [Entry 18]	18
O=Nc1ccc(O)c2ncccc12 [Entry 33, 5-nitrosoquinolin-8-ol]	17
Nc1ccc(O)c2ncccc12 [Entry 34, 5-aminoquinolin-8-ol]	38
CN(C)S(=O)(=O)Oc1ccc([N+](=O)[O-])c2cccnc12 [Entry 48, 5-nitroquinolin-8-yl dimethylsulfamate]	23
Cc1ccc(S(=O)(=O)Nc2ccc(N=O)c3cccnc23)cc1 [Entry 54]	22
O=[N+]([O-])c1ccc(O)c2ncccc12 [Entry 5, Nitroxoline, reference compound]	21
Cc1ccc(S(=O)(=O)Nc2ccc([N+](=O)[O-])c3cccnc23)cc1 [Entry 55]	21
O=C(Nc1cc(Cl)cc(Cl)c1)Oc1ccc(Cl)c2cccnc12 [Entry 24]	17
Cc1ccc(S(=O)(=O)Nc2cccc3cccnc23)cc1 [Entry 32, 8-quinolinyl p-toluenesulfonamide]	21
